experiment: Plasma pharmacokinetics of BI 187004 after single oral doses (LC–MS/MS); conditions: male, human, plasma, po, 240 mg
Endpoint name: AUC(0-t) (µM·h)
Give the value, in units of µM·h, as a plain number.

Per the record, "N#Cc1ccc2c(c1)[C@H]1CCCN(C(=O)c3ccc4[nH]cnc4c3)[C@H]1C2" has AUC(0-t) of 71.7

###

test: Plasma pharmacokinetics of BI 187004 after single oral doses (LC–MS/MS); details: male, human, plasma, po, 80 mg, BI 187004 plasma concentrations, 80 mg single oral, planned time 2 h, Min
Endpoint name: concentration at 2 h (nM)
Give the value, in units of nM, as a plain number.

Per the record, "N#Cc1ccc2c(c1)[C@H]1CCCN(C(=O)c3ccc4[nH]cnc4c3)[C@H]1C2" has concentration at 2 h of 1000

###

test: BI 187004 concentration in subcutaneous adipose tissue biopsies (LC–MS/MS); type: in vivo, human; details: male, human, subcutaneous adipose tissue / plasma, oral; 80 mg single dose; 10 h; read-out: AT:plasma ratio (range) 10 h
Endpoint name: Kp at 10 h

Per the record, "N#Cc1ccc2c(c1)[C@H]1CCCN(C(=O)c3ccc4[nH]cnc4c3)[C@H]1C2" has Kp at 10 h of 8.36

###

assay: Plasma pharmacokinetics of BI 187004 after single oral doses (LC–MS/MS); details: male, human, plasma, po, 40 mg, BI 187004 plasma concentrations, 40 mg single oral, planned time 1 h, gMean
Endpoint name: concentration at 1 h (nM)
Give the value, in units of nM, as a plain number.

Per the record, N#Cc1ccc2c(c1)[C@H]1CCCN(C(=O)c3ccc4[nH]cnc4c3)[C@H]1C2 [BI 187004] has concentration at 1 h of 2050

###

assay: Plasma pharmacokinetics of BI 187004 after single oral doses (LC–MS/MS); conditions: male, human, plasma, po, 20 mg, BI 187004 plasma concentrations, 20 mg single oral, planned time 36 h, Max
Endpoint name: concentration at 36 h (nM)
Give the value, in units of nM, as a plain number.

Per the record, N#Cc1ccc2c(c1)[C@H]1CCCN(C(=O)c3ccc4[nH]cnc4c3)[C@H]1C2 [BI 187004] has concentration at 36 h of 145

###

assay: Plasma pharmacokinetics of BI 187004 after single oral doses (LC–MS/MS); details: male, human, plasma, po, 160 mg
Endpoint name: AUC(0-inf) (µM·h)
Give the value, in units of µM·h, as a plain number.

Per the record, "N#Cc1ccc2c(c1)[C@H]1CCCN(C(=O)c3ccc4[nH]cnc4c3)[C@H]1C2" has AUC(0-inf) of 111

###

experiment: Plasma pharmacokinetics of BI 187004 after single oral doses (LC–MS/MS); conditions: male, human, plasma, po, 40 mg, BI 187004 plasma concentrations, 40 mg single oral, planned time 2 h, Min
Endpoint name: concentration at 2 h (nM)
Give the value, in units of nM, as a plain number.

Per the record, "N#Cc1ccc2c(c1)[C@H]1CCCN(C(=O)c3ccc4[nH]cnc4c3)[C@H]1C2" has concentration at 2 h of 1040

###

test: Plasma pharmacokinetics of BI 187004 after single oral doses (LC–MS/MS); conditions: male, human, plasma, po, 360 mg, BI 187004 plasma concentrations, gMean, 360 mg single oral, planned time 6 h
Endpoint name: concentration at 6 h
# output: numeric value plus its unit

Per the record, "N#Cc1ccc2c(c1)[C@H]1CCCN(C(=O)c3ccc4[nH]cnc4c3)[C@H]1C2" has concentration at 6 h of 7.11 µM
